Assay: FRG1 promoter luciferase signal modulators, primary screen, FRG1 inhibition for FSHD, cell-based, C2C12 myotubes, firefly/Renilla luciferase, luminescence (AID 1084)
Conditions: higher = more signal, called active from +8 up or from −8 down

compound	z-score
CCOC(=O)[C@H](Cc1ccccc1)NC(=O)CCC1CC(OC(=O)NCc2ccc3c(c2)OCO3)CC2(CCCC(COC(=O)NCCOc3ccccc3)O2)O1 (stereo partly drawn)	1.17
CCOC(=O)NN=C1C[C@@H](O)[C@@H](O)[C@@H]2[C@@H]3C(=O)N(C[C@@H]4CCCO4)C(=O)[C@@H]3CC[C@H]12	0.577
O=C(NCCC[N+]1=CC=NC1c1ccccc1)N1CCCc2nc(-c3ccc(Br)cc3)ccc21 (stereo not drawn)	0.88
